- Tested on: HepG2
- experiment-notes: cytotoxicity call (relative viability < 0.9)
- applied-conditions: 10 µM
The campaign covered roughly 39,000 compounds. About 3,300 (8.5%) were called active. This is one part of a sample in which actives are shown more often than they occur.
value-type: cytotoxicity call

1) C[C@@H]1CCCCO[C@@H](CN(C)Cc2ccncc2)[C@H](C)CN([C@@H](C)CO)C(=O)c2cc(NC(=O)C3CCCCC3)ccc2O1 = inactive
2) [N-]=[N+]=Nc1ccccc1C[C@@]1(C(=O)NCc2ccccc2)N=C(c2ccc(OCCCO)cc2)O[C@@H]1c1ccccc1 = inactive
3) COc1ccc(NC(=O)N2C[C@H](O)COC[C@@H]3O[C@@H](CC(=O)NC4Cc5ccccc5C4)CC[C@H]32)cc1 = inactive

----------
- Tested on: HepG2
- experiment-notes: cytotoxicity call (relative viability < 0.9)
- applied-conditions: 10 µM
Out of some 39,000 compounds screened, about 3,300 (8.5%) were called active. This excerpt belongs to a sample that is enriched for actives.
Give your call using only these classes: TRUE = active, FALSE = inactive

# lookup: test call for "Cc1c(CN2CCN(C(=O)[C@H](C)O)CC2)sc2c(N3CCOCC3)nc(-c3cnc(N)nc3)nc12" TRUE

"CC[C@@H](C[C@@H](O)[C@@H](C)[C@H]1CC[C@H]2C3=CC(=O)[C@H]4[C@H](C)[C@@H](OC(=O)c5ccccc5)CC[C@]4(C)[C@H]3CC[C@]12C)C(C)C" , same question. FALSE

----------
- Test system: HepG2
- experiment-notes: cytotoxicity call (relative viability < 0.9)
- applied-conditions: 10 µM
Out of some 39,000 compounds screened, about 3,300 (8.5%) were called active. This is one part of a sample in which actives are shown more often than they occur.
Give your call using only these classes: active, inactive

1. Cc1noc(C)c1S(=O)(=O)N(C)C[C@@H]1Oc2ccc(NS(=O)(=O)c3cn(C)cn3)cc2CC(=O)N([C@H](C)CO)C[C@@H]1C = inactive
2. CC1=C(/C=C/C(C)=C/C=C/C(C)=C/C=C/C=C(C)/C=C/C=C(C)/C=C/C2=C(C)C(=O)[C@@H](O)CC2(C)C)C(C)(C)C[C@H](O)C1=O = inactive
3. C[C@@H]1CCCCO[C@H](CN(C)C(=O)Nc2ccc(C(F)(F)F)cc2)[C@H](C)CN([C@@H](C)CO)C(=O)c2cc(NC(=O)C3CCCCC3)ccc2O1 = inactive

# lookup: test call for "O=C(Nc1ccc([N+](=O)[O-])cc1Cl)c1cc(Cl)ccc1O" active

CC(NCCc1ccc(O)cc1)C(O)c1ccc(O)cc1.Cl (configuration not stated) , same question. inactive

"C[C@@H]1CCCCO[C@@H](CN(C)C(=O)NC2CCCCC2)[C@H](C)CN([C@@H](C)CO)C(=O)c2cc(NC(=O)CCCCCC(=O)Nc3ccccc3N)ccc2O1" , same question. inactive

"COc1ccc(C#Cc2ccc3c(c2)[C@]2(C(=O)N3)[C@H](C(=O)O)[C@H]3C(=O)O[C@H](c4ccccc4)[C@H](c4ccccc4)N3[C@@H]2c2ccccc2OCCO)cc1" , same question. inactive

"C[C@@H]1CN([C@H](C)CO)C(=O)Cc2cc(NC(=O)Nc3ccc(C(F)(F)F)cc3)ccc2O[C@@H]1CN(C)C(=O)Nc1ccc(F)cc1" , same question. active

The reported numbers originate from the antibiotic and cytotoxicity screens of Wong et al. (2023).
